These entries and their values trace back to patent US20120022070A1.

Tested on: Her2 protein in MCF-7 breast cancer cells
test_description: Cell-based Her2 degradation assay by Western Blot
test_conditions: Homo sapiens, MCF7; Table 1; MCF-7 cells, 24 hours of compound treatment; read-out: Her2 degradation WB IC50
pIC50: −log10 of the molar value.
measured_property: pIC50

Some solved cases for reference:
- O=C1C=C(Nc2cc(Cl)ccc2Cl)c2ccccc2C1=O [Compound 33]: < 4.52
- NC1=CC(=O)C(=O)c2cccnc21 [Compound 4]: < 4.70
- Cc1cc(Br)ccc1NC1=CC(=O)C(=O)c2ccccc21 [Compound 35]: < 4.52
- CCCCCCN(CCCCCC)C1=CC(=O)C(=O)c2ccccc21 [Compound 38]: ~4.52

// for each compound below, give its pIC50
1. CCOc1ccc(NC2=CC(=O)C(=O)c3ccccc32)cc1 [Compound 21]
2. O=C1C=C(Nc2cccnc2)c2ccccc2C1=O [Compound 16]
3. O=C1C=C(Nc2ncccn2)c2ccccc2C1=O [Compound 14]
4. O=C1C(=O)c2cccnc2C(NC2CC3CCC2C3)=C1Cl (stereo not drawn) [Compound 2]
5. Cc1ccc(NC2=CC(=O)C(=O)c3ccccc32)cc1C [Compound 29]
6. O=C1C=C(Nc2ccccc2)c2ncccc2C1=O [Compound 1]
7. COc1ccc(NC2=CC(=O)C(=O)c3ccccc32)c([N+](=O)[O-])c1 [Compound 52]
8. CN(C)C1=C(Cl)C(=O)C(=O)c2cccnc21 [Compound 5]

OUTPUT:
1: ~5.00; 2: ~5.00; 3: 5.00 to 6.00; 4: ~5.60; 5: > 5.00; 6: ~5.60; 7: < 5.00; 8: < 4.70
